assayed-target: T1, recombinant human RON SEMA and PSI domains (human, UniProt Q04912 25-571)
T1 construct: domain: SEMA+PSI; Commercial protein (R&D Systems); also called rhRON SEMA+PSI; hRON SEMA+PSI
procedure-summary: SPR, Ab captured on anti-human IgG Fc, 37 C, screening
metric-name: kon (M⁻¹ s⁻¹)
Write the value in M⁻¹ s⁻¹ as a bare number.

// worked examples, kon included
Please look at this binder and report its kon: Sh07F01-83 (antibody, human IgG1, kappa, V domains shown, Humanized, human IgG1/kappa: Sh07F01 Hv3-48 D28T T60A L63V E65G IgG1 + Sh07F01 Kv1-9 F1 Kappa) VH: EVQLVESGGGLVQPGGSLRLSCAASGFTFSRHWMSWVRQAPGKGLEWVSEINPDSRTINYAPSVKGRFTISRDNAKNSLYLQMNSLRAEDTAVYYCARRVRIHYYGAMDSWGQGTTVTVSS VL: DIQLTQSPSFLSASVGDRVTITCRASQNVGSSLVWYQQKPGKAPKTLIYSASFLYSGVPSRFSGSGSGTEFTLTISSLQPEDFATYYCQQYNNYPLTFGGGTKVEIKR
2.6e+06

Please look at this binder and report its kon: Sh29B06-23 (antibody, human IgG1, kappa, V domains shown, Humanized, human IgG1/kappa: Hu29B06 Hv4-59 IgG1 (CDR graft with back mutations) + Sh29B06 Kv2-28 Kappa) VH: QVQLQESGPGLVKPSETLSLTCTVSGDSITSGYWNWIRKPPGKKLEYMGYISYSGKTYYNPSLKSRITISRDTSKNQYSLKLSSVTAADTAVYYCARSKYDYAMDYWGQGTLVTVSS VL: DIVMTQSPLSLPVTPGEPASISCRASEIVDNFGISFMNWYLQKPGQSPQLLIYAASNQGSGVPDRFSGSGSGTDFTLKISRVEAEDVGVYYCQQSKEVPPTFGGGTKVEIKR
780000

---
Please look at this binder and report its kon: Sh07F01-62 (antibody, human IgG1, kappa, V domains shown, Humanized, human IgG1/kappa: Sh07F01 Hv3-48 D28T T60A L63V E65G IgG1 + HE L 07F01 Kv1-9 Kappa) VH: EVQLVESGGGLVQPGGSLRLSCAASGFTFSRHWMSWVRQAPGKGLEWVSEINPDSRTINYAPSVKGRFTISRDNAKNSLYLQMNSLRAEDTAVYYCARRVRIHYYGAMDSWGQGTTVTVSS VL: DIQLTQSQSFVSTSVGDRVTVTCRASQNVGSSLVWYQQKPGKSPKTLIYSASFLYSGVPSRFSGSGSGTEFTLTISSVQPEDFADYFCQQYNNYPLTFGGGTKVEIKR
3.9e+06
